System: PC-3 prostate
measurementNotes: NCI-60 one-dose screen, 48 h
testContext: 10 µM unless noted
This is part of a sample that, as a whole, favours compounds with a hit. Of some 83,000 tested, about 20% had one in any assay. Activity calls are given as the source filed them. Rule for the calls: active = growth percent below 10; inactive = the rest.
Return exactly one item of Y = active, N = inactive

Use the examples below as a reference point.
[
  {
    "compound": "O=c1onc(-c2ccccc2)c2ccccc12",
    "groupLabel": "N"
  },
  {
    "compound": "COc1cc(C(=O)N(C(C)C)C2CCCCC2)cc(OC)c1OC",
    "groupLabel": "N"
  },
  {
    "compound": "CCOC(=O)C(CC(c1ccccc1)N1CCCCC1)[N+](=O)[O-] (stereo unspecified)",
    "groupLabel": "N"
  },
  {
    "compound": "O=S(=O)(Nc1ccccc1Cl)c1ccc(-c2cnc(C3CC3)o2)cc1",
    "groupLabel": "N"
  },
  {
    "compound": "O=C(C[Si](CC(=O)c1cccc(C(F)(F)F)c1)CC(=O)c1cccc(C(F)(F)F)c1)c1cccc(C(F)(F)F)c1",
    "groupLabel": "Y"
  }
]

Attention now shifts to the item below.
[ask] Identify the outcome logged in this assay for the compound shown: O=S(=O)(OCCO)c1ccccc1
[reply] N

----------
System: SF-268 CNS
measurementNotes: NCI-60 one-dose screen, 48 h
testContext: 10 µM unless noted
The panel holds about 83,000 compounds, 20% with a hit somewhere; the sample as a whole holds those more often. Activity calls are given as the source filed them. Rule for the calls: active = growth percent below 10; inactive = the rest.
Return exactly one item of class 1 (active), class 0 (inactive)

[
  {
    "compound": "O=C(O)C[C@H](O)C[C@H](O)/C=C/c1c(C2CC2)nc2ccccc2c1-c1ccc(F)cc1",
    "groupLabel": "class 0"
  },
  {
    "compound": "Cc1c(NCC(=O)Nc2nc3ccccc3[nH]2)c(=O)n(-c2ccccc2)n1C",
    "groupLabel": "class 0"
  },
  {
    "compound": "COc1c(O)c2c3c(c1OC)-c1ccccc1CC3N(S(=O)(=O)c1ccc(C)cc1)CC2 (stereo unspecified)",
    "groupLabel": "class 0"
  },
  {
    "compound": "O=C(Nc1ccccc1)Oc1cccc2cccnc12",
    "groupLabel": "class 0"
  },
  {
    "compound": "Cc1nn(-c2ccccc2)c2nc3nc4c(c(N)c3c(-c3ccc(Cl)cc3)c12)CCC4",
    "groupLabel": "class 0"
  }
]

[ask] Identify the outcome logged in this assay for the compound shown: C[C@@H](Oc1cc(-c2cnn(C3CC4(CCNCC4)C3)c2)cnc1N)c1c(F)ccc(Cl)c1Cl
[reply] class 1

[ask] Identify the outcome logged in this assay for the compound shown: COc1ccc(S(=O)(=O)ON=C2C=C(C)C(=O)C(C)=C2)cc1
[reply] class 0

[ask] Identify the outcome logged in this assay for the compound shown: COc1ccc(-c2[nH]ncc2Nc2cc(OC)c(OC)c(OC)c2)cc1
[reply] class 0

[ask] Identify the outcome logged in this assay for the compound shown: COc1ncc(F)c(OC)n1
[reply] class 0

[ask] Identify the outcome logged in this assay for the compound shown: O=C(NCc1cccnc1)c1ccc([N+](=O)[O-])o1
[reply] class 0

[ask] Identify the outcome logged in this assay for the compound shown: Nc1nc(-c2ccnc(Cl)c2)nn1-c1nc2ccccc2s1
[reply] class 0

[ask] Identify the outcome logged in this assay for the compound shown: Clc1ccc(Nc2ccnc(N3CCN(c4ccnc5cc(Cl)ccc45)CC3)n2)cc1
[reply] class 0

----------
Test system: TK-10 renal
measurementNotes: NCI-60 one-dose screen, 48 h
testContext: 10 µM unless noted
The panel holds about 83,000 compounds, 20% with a hit somewhere; the sample as a whole holds those more often. Active and inactive are the calls of the source. Rule for the calls: active = growth percent below 10; inactive = the rest.
Return exactly one item of active, inactive

Use the examples below as a reference point.
[
  {
    "compound": "FC(F)(F)c1cc(CNc2ncc(Br)c(Cl)n2)cc(C(F)(F)F)c1",
    "groupLabel": "inactive"
  },
  {
    "compound": "Oc1ccc2ccccc2c1C1NN=C(c2ccccc2)S1 (stereo unspecified)",
    "groupLabel": "inactive"
  },
  {
    "compound": "COC(=O)c1c2c(c(C)[n+]([O-])c1C)C(=O)C=C(NCc1ccc(Cl)cc1)C2=O",
    "groupLabel": "inactive"
  },
  {
    "compound": "CC1(C)N=C(N)N=C(N)N1c1cccc(/C=C/C=C/c2cccc([N+](=O)[O-])c2)c1",
    "groupLabel": "inactive"
  },
  {
    "compound": "Cn1c(=O)c2c(-c3ccccc3F)n(-c3ccc4c(c3)OCO4)cc2n(C)c1=O",
    "groupLabel": "inactive"
  }
]

[ask] Identify the outcome logged in this assay for the compound shown: O=C(CCCCCCC(=O)Nc1ccc2c(c1)/C(=C/c1ccc[nH]1)C(=O)N2)NO
[reply] active

[ask] Identify the outcome logged in this assay for the compound shown: Cc1nc2cc(Nc3nc(NCCO)nc(Nc4ccc(F)cc4)n3)ccc2n1Cc1ccccc1
[reply] inactive

[ask] Identify the outcome logged in this assay for the compound shown: O=C1/C(=C/c2ccc(Oc3ccccc3)cc2)N=C(c2ccccc2)N1CCc1cccs1
[reply] inactive

[ask] Identify the outcome logged in this assay for the compound shown: CCOC(=O)c1cc2c(n(C)c1=O)-c1cnn(-c3ccc(OC)cc3)c1CC2
[reply] inactive

[ask] Identify the outcome logged in this assay for the compound shown: CCCN1CCN(c2ccc3nc(-c4ccc5nc(-c6ccc(C(F)(F)F)cc6)[nH]c5c4)[nH]c3c2)CC1
[reply] active

[ask] Identify the outcome logged in this assay for the compound shown: Cc1nc(NN)c([N+](=O)[O-])c(NN)n1
[reply] inactive

[ask] Identify the outcome logged in this assay for the compound shown: COc1cc(C(=O)N(C(C)C)C2CCCCC2)cc(OC)c1OC
[reply] inactive

[ask] Identify the outcome logged in this assay for the compound shown: COc1cc(C(=O)/C=C/c2c(-c3cccs3)nc3sccn23)cc(OC)c1OC
[reply] active

----------
System: SF-268 CNS
measurementNotes: NCI-60 one-dose screen, 48 h
testContext: 10 µM unless noted
About 83,000 compounds went through this panel and 20% of them were active in at least one assay; those are over-represented in the sample as a whole. Calls of active or inactive are those of the source. How the source made its calls: active means growth percent below 10; inactive means the rest.
Return exactly one item of yes (1) = active, no (0) = inactive

Use the examples below as a reference point.
[
  {
    "compound": "O=C1C2CC3C(CC2C(=O)[N]1[Sn]([c]1ccccc1)([c]1ccccc1)[c]1ccccc1)C1(Cl)C(Cl)=C(Cl)C3(Cl)C1(Cl)Cl (centres undefined)",
    "groupLabel": "yes (1)"
  },
  {
    "compound": "Cc1c(C)n(CC(O)CNC2CCCCC2C)c2ccccc12 (centres undefined)",
    "groupLabel": "yes (1)"
  },
  {
    "compound": "Nc1nc(N)c(C=Nc2ccc(Br)cc2)c(Nc2ccc(Br)cc2)n1",
    "groupLabel": "no (0)"
  },
  {
    "compound": "COc1cc(CNCCN2C(=O)c3ccc4c5c(ccc(c35)C2=O)C(=O)N(CCNCc2cc(OC)c(OC)c(OC)c2)C4=O)cc(OC)c1OC",
    "groupLabel": "yes (1)"
  },
  {
    "compound": "COc1ccc(OC)c(C2C(C#N)=C(N)Oc3cc(O)ccc32)c1 (centres undefined)",
    "groupLabel": "no (0)"
  }
]

[ask] Identify the outcome logged in this assay for the compound shown: COc1ccc(Cn2c(Br)c3c(c2-c2cc(OC)c(OC)c(OC)c2)CCc2sc(N)nc2-3)cc1
[reply] no (0)

[ask] Identify the outcome logged in this assay for the compound shown: Clc1ccccc1Nc1ccc2nnc(-c3ccncc3)n2n1
[reply] no (0)

[ask] Identify the outcome logged in this assay for the compound shown: O=C(N/N=C/c1ccc(OC(F)F)c(OC2CCCC2)c1)c1cnn2c1NC(c1ccccc1)C2 (centres undefined)
[reply] no (0)

[ask] Identify the outcome logged in this assay for the compound shown: COc1ccc(C(=O)COc2cccc(/C=C3\CSc4ccc(C)cc4C3=O)c2)cc1
[reply] no (0)

----------
Tested on: HCC-2998 colon
measurementNotes: NCI-60 one-dose screen, 48 h (100 = growth as untreated, 0 = no growth, -100 = all killed)
testContext: 10 µM unless noted
Compounds without any hit were thinned out: in the full panel of roughly 83,000, 20% have a hit.
// FALSE strictly below -30% in growth; TRUE otherwise

[
  {
    "molecule": "O=C(N/N=C(\\CS(=O)(=O)c1ccccc1)c1cc2ccccc2oc1=O)c1ccccc1",
    "groupLabel": "TRUE"
  },
  {
    "molecule": "COC(=O)c1c2c(c(C)[n+]([O-])c1C)C(=O)C=C(NCc1cccc(Cl)c1)C2=O",
    "groupLabel": "FALSE"
  },
  {
    "molecule": "O=C1C(Cl)=C(NCCCN2CCOCC2)C(=O)c2ccccc21",
    "groupLabel": "TRUE"
  },
  {
    "molecule": "CCN1CCN(c2nc3ccccc3c3c(=O)c4cc(F)ccc4sc23)CC1",
    "groupLabel": "TRUE"
  },
  {
    "molecule": "Cl.Fc1c[c-]c(-c2ccccn2)c(F)c1.[Pt].c1ccc([PH+](CC[PH+](c2ccccc2)c2ccccc2)c2ccccc2)cc1",
    "groupLabel": "FALSE"
  }
]

[ask] I'd appreciate it if you could say whether C[C@@H](Oc1cc(-c2cnn(C3CC4(CNC4)C3)c2)cnc1N)c1c(Cl)ccc(F)c1Cl has growth at least equal to -30%.
[reply] TRUE

[ask] I'd appreciate it if you could say whether COc1cc(/C=C/C(=O)C2=C(/C=C/c3ccc(O)c(OC)c3)NC(=O)NC2c2ccc(O)c(OC)c2)ccc1O (configuration not stated) has growth at least equal to -30%.
[reply] TRUE

[ask] I'd appreciate it if you could say whether O=C(c1cnn2c1NC(c1ccc(F)cc1)C2)N1CCCCC1 (configuration not stated) has growth at least equal to -30%.
[reply] TRUE

[ask] I'd appreciate it if you could say whether O=C1C2CC3C(CC2C(=O)[N]1[Sn]([c]1ccccc1)([c]1ccccc1)[c]1ccccc1)C1(Cl)C(Cl)=C(Cl)C3(Cl)C1(Cl)Cl (configuration not stated) has growth at least equal to -30%.
[reply] FALSE

[ask] I'd appreciate it if you could say whether ONc1nc(NO)c2[nH]cnc2n1 has growth at least equal to -30%.
[reply] TRUE
